Reference for the values: patent US3985740A

# Test system: Pr. mirabilis A9900
# PROTOCOL DETAILS: M.I.C. by tube dilution
# Format: cell-based
# DETAILS: Proteus mirabilis, A9900; at 10^-^4 dilution; overnight 37° C.; read-out: M.I.C.
Reported log10(MIC) values for the following molecules.
RECORDED ENDPOINT: log10(MIC) (log10 of the value in µg/mL)

MOLECULE | EXPERIMENTAL TARGET | RECORDED ENDPOINT | REPORTED VALUE
Cc1csc(C(=O)SCC2=C(C(=O)O)N3C(=O)C(NC(=O)[C@H](N)c4ccccc4)[C@H]3SC2)n1 (stereo partly drawn) | Pr. mirabilis A9900 | log10(MIC) | 1.51
N[C@@H](C(=O)NC1C(=O)N2C(C(=O)O)=C(CSC(=O)c3cncs3)CS[C@H]12)c1ccccc1 (stereo partly drawn) | Pr. mirabilis A9900 | log10(MIC) | 1.20
N[C@@H](C(=O)NC1C(=O)N2C(C(=O)O)=C(CSC(=O)c3nccs3)CS[C@H]12)c1ccccc1 (stereo partly drawn) | Pr. mirabilis A9900 | log10(MIC) | 0.30
N[C@@H](C(=O)NC1C(=O)N2C(C(=O)O)=C(CSC(=O)c3cscn3)CS[C@H]12)c1ccccc1 (stereo partly drawn) | Pr. mirabilis A9900 | log10(MIC) | 0.00
Cc1nc(C(=O)SCC2=C(C(=O)O)N3C(=O)C(NC(=O)[C@H](N)c4ccccc4)[C@H]3SC2)cs1 (stereo partly drawn) | Pr. mirabilis A9900 | log10(MIC) | 0.90
Cc1cnc(C(=O)SCC2=C(C(=O)O)N3C(=O)C(NC(=O)[C@H](N)c4ccccc4)[C@H]3SC2)s1 (stereo partly drawn) | Pr. mirabilis A9900 | log10(MIC) | 1.20
